B1: HSP90AB1 (parent)
chain: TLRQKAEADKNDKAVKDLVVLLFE

Variants of: B1
assay_summary: protein stability index of a GFP-peptide fusion (GPS, HEK-293T) (PSI 1-6); higher = more stable;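 further: lentivirally expressed fusions sorted by FACS into six bins by GFP to DsRed ratio, PSI derived from sequencing read proportions per bin multiplied by bin number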
condition_label: c terminus: a fixed tail appended
Binary classification by protein stability index, with 3 as an inclusive lower bound for yes; all other cases are no.

K5E yes

// query Is protein stability index at least 3? Consider D9F
// result no

// query Reported protein stability index at or above 3? L22M
// result yes

// query Kindly determine if protein stability index recorded for L21Q is above or exactly 3.
// result yes

// query Does K5S have a reported protein stability index of at least 3?
// result yes

// query Please indicate if the recorded protein stability index for L2K meets or exceeds 3.
// result no
